I'd be grateful if you could share measured inhibition at 25 µM for these entries.
target: Aβ1–42 (Homo sapiens); assay: Inhibition of Cu2+-induced Aβ1–42 aggregation; format: biochemical; details: read-out: Inhibition of Aβ1–42 aggregation (%) Cu^2+-induced
Sequence (P05067 672-713): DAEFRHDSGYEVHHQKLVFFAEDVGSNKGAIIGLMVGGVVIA
Give bare numbers, in %.

[
  {
    "Compound": "CCN(CCCOc1ccc(/C=C/C(=O)c2c(O)cc(OC)c(OC)c2OC)cc1)Cc1ccccc1OC [Compound 9b]",
    "Unit abbrev": "%",
    "inhibition at 25 µM": 71.6
  },
  {
    "Compound": "COc1cc(O)c(C(=O)/C=C/c2ccc(O)cc2)c(OC)c1OC [Compound 8]",
    "Unit abbrev": "%",
    "inhibition at 25 µM": 33.2
  },
  {
    "Compound": "COc1cc(/C=C/C(=O)CC(=O)/C=C/c2ccc(O)c(OC)c2)ccc1O [Curcumin, reference compound]",
    "Unit abbrev": "%",
    "inhibition at 25 µM": 76.5
  },
  {
    "Compound": "CCN(CCCCOc1ccc(/C=C/C(=O)c2c(O)cc(OC)c(OC)c2OC)cc1)Cc1ccccc1OC [Compound 9d]",
    "Unit abbrev": "%",
    "inhibition at 25 µM": 72.4
  },
  {
    "Compound": "COc1ccccc1CN(C)CCCCCCOc1ccc(/C=C/C(=O)c2c(O)cc(OC)c(O)c2OC)cc1 [Compound 17e]",
    "Unit abbrev": "%",
    "inhibition at 25 µM": 96.2
  },
  {
    "Compound": "COc1ccccc1CN(C)CCCCOc1ccc(/C=C/C(=O)c2c(O)cc(OC)c(O)c2OC)cc1 [Compound 17c]",
    "Unit abbrev": "%",
    "inhibition at 25 µM": 92.5
  }
]

The following compounds each have a reported value; give each one's inhibition at 25 µM.
1. CCN(CCCCCCOc1ccc(/C=C/C(=O)c2c(O)cc(OC)c(O)c2OC)cc1)Cc1ccccc1OC [Compound 17f]
2. CCN(CCCCCCOc1ccc(/C=C/C(=O)c2c(O)cc(OC)c(OC)c2OC)cc1)Cc1ccccc1OC [Compound 9f]

93.5
75
